- Tested on: KG-1a
- method-summary: Alamar blue cytotoxicity assay
- Format: cell-based, human
- condition-parameters: Homo sapiens, 72 h, read-out: IC50 and 95%CI
property-label: IC50 (nM)
Numbers only, in nM.

What measured IC50 goes with COc1cccc2c1C(=O)c1c(O)c3c(c(O)c1C2=O)C[C@@](O)(C(=O)CO)C[C@@H]3O[C@H]1C[C@H](N)[C@H](O)[C@H](C)O1 [DOX, Doxorubicin, reference compound] ?
400
